target: recombinant eEF2K (Homo sapiens (Human), UniProt O00418); assay: eEF2K Kinase-Glo luminescent kinase assay (ATP consumption, peptide substrate); assay type: biochemical; conditions: average of two to four separate experimental measurements, each the average of three replicates
pIC50: −log10 of the molar value.
property.name: pIC50

- compound: "CC1(C)CCc2nc3sc(C(N)=O)c(N)c3c(-c3ccoc3)c2C1 [Compound 21]"
  study.target: "recombinant eEF2K (Homo sapiens (Human), UniProt O00418)"
  pIC50: 5.70
- compound: "CC1(C)C/C(=C\\c2cccc(Cl)c2F)c2nc3sc(C(N)=O)c(N)c3c(-c3cccc(Cl)c3F)c2C1 [Compound 14]"
  study.target: "recombinant eEF2K (Homo sapiens (Human), UniProt O00418)"
  pIC50: 2.30
- compound: "CC1(C)CCc2c1nc1sc(C(N)=O)c(N)c1c2C1CC1 [Compound 19]"
  study.target: "recombinant eEF2K (Homo sapiens (Human), UniProt O00418)"
  pIC50: 5.96
- compound: "CC1CC(C)(C)Cc2nc3sc(C(N)=O)c(N)c3c(-c3ccc(Cl)o3)c21 (centres unmarked) [Compound 12]"
  study.target: "recombinant eEF2K (Homo sapiens (Human), UniProt O00418)"
  pIC50: 5.30
- compound: "CC1(C)CCc2c(nc3sc(C(N)=O)c(N)c3c2-c2ccc(Cl)o2)C1 [Compound 7]"
  study.target: "recombinant eEF2K (Homo sapiens (Human), UniProt O00418)"
  pIC50: 5.80

I. CC1CC(C)(C)Cc2nc3sc(C(N)=O)c(N)c3c(-c3cncs3)c21 (centres unmarked) [Compound 36]
II. CCCC1C/C(=C\c2ccc(Cl)o2)c2nc3sc(C(N)=O)c(N)c3c(-c3ccc(Cl)o3)c2C1 (centres unmarked) [Compound 5]
III. Cn1cc(-c2c3c(nc4sc(C(N)=O)c(N)c24)C(C)(C)CCC3)cn1 [Compound 39]
Prompt line: Rank descending by pIC50. The reply should contain the labels ordered as requested.
Response line: I, III, II
(I: 6.40, III: 5.85, II: 5.22)
